Each item that follows carries a reported IC50.
# measured-target: human jejunal NK-2 receptor (Homo sapiens)
# Construct: expressed in transfected cells; host or cells: HSKR-1 (mouse 3T3 fibroblasts)
# Sequence (P21452 whole entry): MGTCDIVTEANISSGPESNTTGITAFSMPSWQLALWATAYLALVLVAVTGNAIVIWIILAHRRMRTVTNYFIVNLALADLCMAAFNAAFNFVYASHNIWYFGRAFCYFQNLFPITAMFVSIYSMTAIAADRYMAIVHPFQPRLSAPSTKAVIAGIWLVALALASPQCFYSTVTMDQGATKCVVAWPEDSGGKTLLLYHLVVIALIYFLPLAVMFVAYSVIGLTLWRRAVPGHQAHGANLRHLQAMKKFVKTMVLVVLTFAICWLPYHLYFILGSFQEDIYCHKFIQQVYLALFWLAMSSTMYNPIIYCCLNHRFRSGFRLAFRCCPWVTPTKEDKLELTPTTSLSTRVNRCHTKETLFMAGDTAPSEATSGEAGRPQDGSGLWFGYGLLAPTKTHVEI
# assay-info: NK-2 receptor binding (125I-neurokinin A) in HSKR-1 cell membranes
# experimental-setup: HSKR-1 cells (mouse 3T3 fibroblasts expressing human jejunal NK-2 receptor); 0.1 nM 125I-iodohistidyl-1-neurokinin A; mean ± S.E.M.
Where a SMILES comes first, the peptide text is derived from it. [ ]: non-standard residue; d: D form.
Output spec: scalar in nM, unitless text.

CC(C)C[C@@H]1NC(=O)[C@@H](Cc2c[nH]c3ccccc23)NC(=O)[C@H](Cc2ccc(O)cc2)NC(=O)[C@@H]2CCCN2C(=O)[C@H](Cc2c[nH]c3ccccc23)NC(=O)[C@H](CCCNC(=N)N)NC1=O [cyclo[Tyr--trp--Leu--Arg--Trp--Pro], cyclo[Tyr-trp-Leu-Arg-Trp-Pro]] (cyclo(LRWPY[dW])) ... 30
CC(C)C[C@@H]1NC(=O)[C@@H](Cc2c[nH]c3ccccc23)NC(=O)[C@H](Cc2ccc(O)cc2)NC(=O)CNC(=O)[C@H](Cc2ccc(O)cc2)NC(=O)[C@H](CCCNC(=N)N)NC1=O [cyclo[Tyr--trp--Leu--Arg--Tyr--Gly], cyclo[Tyr-trp-Leu-Arg-Tyr-Gly]] (cyclo(GY[dW]LRY)) ... 18.9

Attention now shifts to the item below.
stdin: Requested read-out: IC50. Entry: CC(C)C[C@@H]1NC(=O)CNC(=O)[C@H](Cc2c[nH]c3ccccc23)NC(=O)[C@H](CCCNC(=N)N)NC(=O)[C@H](CC(C)C)NC(=O)CNC(=O)[C@H](Cc2c[nH]c3ccccc23)NC(=O)[C@H](CCCNC(=N)N)NC1=O [cyclo[Leu-Arg-Trp-Gly-Leu-Arg-Trp-Gly]] (cyclo(GLRWGLRW))
stdout: 768

* * *

# measured-target: NK-1 receptor (Cavia porcellus)
# Construct: tissue Keystone Biologicals, Cleveland, OH; host or cells: guinea pig lung
# Sequence (P30547 whole entry): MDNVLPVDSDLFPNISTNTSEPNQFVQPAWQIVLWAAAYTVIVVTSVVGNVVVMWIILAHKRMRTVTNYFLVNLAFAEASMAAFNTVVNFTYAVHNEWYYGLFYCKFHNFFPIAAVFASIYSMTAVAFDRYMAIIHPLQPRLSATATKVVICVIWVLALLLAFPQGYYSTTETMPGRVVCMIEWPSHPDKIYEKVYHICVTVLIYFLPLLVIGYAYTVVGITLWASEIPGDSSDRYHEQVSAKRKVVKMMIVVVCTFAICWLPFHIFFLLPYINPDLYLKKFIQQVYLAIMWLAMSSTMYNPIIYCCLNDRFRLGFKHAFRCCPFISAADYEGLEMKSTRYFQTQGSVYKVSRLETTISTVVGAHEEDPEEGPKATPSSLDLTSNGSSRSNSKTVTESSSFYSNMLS
# assay-info: NK-1 receptor binding (125I-Bolton-Hunter substance P) in guinea pig lung membranes
# experimental-setup: 0.1 nM 125I-Bolton-Hunter Lys-3 substance P, mean ± S.E.M.
# Method: Receptor binding assays were performed in crude tissue membranes. The NK-1 receptor binding affinity of proposed tachykinin antagonists was evaluated in guinea pig lungs (Keystone Biologicals, Cleveland, OH, kept frozen at -80° C. until use). Affinity for the NK-2 receptor was evaluated in HSKR-1 cells which are mouse 3T3 fibroblasts expressing the human jejunal NK-2 receptor. […] Protein was determined by the method of Lowry.
Where a SMILES comes first, the peptide text is derived from it. [ ]: non-standard residue; d: D form.
recorded-metric: IC50 (nM)
Output spec: scalar in nM, unitless text.

CC(C)C[C@@H]1NC(=O)[C@@H](Cc2c[nH]c3ccccc23)NC(=O)[C@H](Cc2ccc(O)cc2)NC(=O)CNC(=O)[C@H](Cc2c[nH]c3ccccc23)NC(=O)[C@H](CCCNC(=N)N)NC1=O [cyclo[Tyr--trp--Leu--Arg--Trp--Gly], cyclo[Tyr-trp-Leu-Arg-Trp-Gly]] (cyclo(GY[dW]LRW)) ... 6190

Attention now shifts to the item below.
stdin: Requested read-out: IC50. Entry: CC(C)C[C@@H]1NC(=O)[C@H](Cc2c[nH]c3ccccc23)NC(=O)[C@H](Cc2ccc(O)cc2)NC(=O)CNC(=O)[C@H](Cc2c[nH]c3ccccc23)NC(=O)[C@H](CCCNC(=N)N)NC1=O [cyclo[Tyr--Trp--Leu--Arg--Trp--Gly]] (cyclo(GYWLRW))
stdout: 10000
